The measured values listed here are drawn from patent US20090076067A1.

system: Rat-derived L6 cells (rat skeletal myoblast cell); test: Rat L6 cell proliferation inhibition test; format: cell-based; details: Table 4, 72 hours, Alamar Blue
Reported EC50 cytotoxicity L6 values follow for various molecules
Field format: number, assumed µg/mL, no unit text.

CCN1C(=O)/C(=c2/s/c(=C3/C=CC=CN3C)c(=O)n2CC)S/C1=N\c1sc2ccccc2[n+]1C [Compound B-30]    7.46
CCN1C(=O)/C(=c2/s/c(=C3/SCCN3C)c(=O)n2CC)S/C1=N\c1sc2cc(F)ccc2[n+]1C [Compound B-33]    9.83
CCN1C(=O)/C(=c2/s/c(=C3/C=CC=CN3C)c(=O)n2CC)S/C1=N\c1sc2cc(F)ccc2[n+]1C [Compound B-32]    15.88
C=CCN1C(=O)/C(=c2/s/c(=C3/SCCN3C)c(=O)n2CC)S/C1=N\c1sc2cc(Cl)ccc2[n+]1C [Compound B-39]    3.72
CCN1C(=O)/C(=c2/s/c(=C3/SCCN3C)c(=O)n2CC)S/C1=N\c1sc2cc(OC)ccc2[n+]1C [Compound B-29]    1.98

Let's switch to this molecule now.
The reported EC50 cytotoxicity L6 of the molecule CCN1C(=O)/C(=c2/s/c(=C3/C=CC=CN3C)c(=O)n2CC)S/C1=N\c1sc2cc(OC)ccc2[n+]1C [Compound B-28] was 5.01

----------
tested on: Rat-derived L6 cells (rat skeletal myoblast cell); assay: Rat L6 cell proliferation inhibition test; format: cell-based; conditions: Table 2, 72 hours, Alamar Blue
# note: boundary value 7 µg/mL maps to F; EC50 cytotoxicity L6 below it maps to T

Dear colleague, could you confirm whether EC50 cytotoxicity L6 of CN1/C(=c2\s/c(=C\c3cccc[n+]3CCC(=O)O)n(CC3CO3)c2=O)Sc2ccccc21 (stereo not shown) [Compound S-3, reference compound] falls below 7 µg/mL? Thanks.
F

Dear colleague, could you confirm whether EC50 cytotoxicity L6 of CCN1C(=O)/C(=c2/s/c(=C3/SCCN3C)c(=O)n2CC)S/C1=N\c1sc2cc(OC)ccc2[n+]1C falls below 7 µg/mL? Thanks.
T

Dear colleague, could you confirm whether EC50 cytotoxicity L6 of CCN1C(=O)/C(=c2/s/c(=C3/C=CC=CN3C)c(=O)n2CC)S/C1=N\c1sc2cc(OC)ccc2[n+]1C falls below 7 µg/mL? Thanks.
T

Dear colleague, could you confirm whether EC50 cytotoxicity L6 of CCN1C(=O)/C(=c2/s/c(=C3/C=CC=CN3C)c(=O)n2CC)S/C1=N\c1sc2cc(F)ccc2[n+]1C falls below 7 µg/mL? Thanks.
F

----------
Reported inhibition in vivo at 10 mg/kg/day values follow for various compounds
test system: Plasmodium berghei NK 65 strain; test: animal or person; format: in vivo; conditions: Plasmodium berghei, ip, 96 h, read-out: Recovery Rate (suppression)
Field format: number, assumed %, no unit text.

Guide cases for inhibition in vivo at 10 mg/kg/day, answers given:
C=C[C@H]1C[N@@]2CC[C@H]1C[C@H]2[C@H](O)c1ccnc2ccc(OC)cc12 [Quinine, reference compound]    18.6
CCN1C(=O)/C(=c2/s/c(=C3/C=CC=CN3C)c(=O)n2CC)S/C1=N\c1sc2cc(Cl)ccc2[n+]1C [Compound B-2]    79.8
CCN1C(=O)/C(=C2\C=Cc3ccccc3N2C)S/C1=N\c1sc2cc(Cl)ccc2[n+]1C [Compound A-2]    54.6

The reported inhibition in vivo at 10 mg/kg/day of the compound CCn1c(=O)/c(=C2\Sc3ccccc3N2C)s/c1=C\c1cccc[n+]1CC [Compound S-1, reference compound] was 30

The reported inhibition in vivo at 10 mg/kg/day of the compound CCn1c(=O)/c(=C2\Sc3ccc4ccccc4c3N2C)s/c1=C\c1cccc[n+]1C [Compound S-4, reference compound] was 36

The reported inhibition in vivo at 10 mg/kg/day of the compound CCN1C(=O)/C(=C2\Sc3ccccc3N2C)S/C1=N\c1sc2cc(Cl)ccc2[n+]1C [Compound A-1] was 54.1

The reported inhibition in vivo at 10 mg/kg/day of the compound CCN1C(=O)/C(=C2\C=Cc3ccccc3N2C)S/C1=N\c1cccc[n+]1C [Compound A-14] was 64.5

The reported inhibition in vivo at 10 mg/kg/day of the compound C=CCn1c(=O)/c(=C2\Sc3ccccc3N2C)s/c1=C\c1cccc[n+]1C [Compound S-2, reference compound] was 27
